From: patent US20230139445A1

Parameter μ (mean): see the listing below.
- Test system: Escherichia coli K-12 MG1655
- assay.protocol: Growth of K-12 MG1655 in varying concentrations of fumaric, itaconic, malic and succinic acid, Growth Profiler
- Assay type: cell-based
- assay.context: growth rate of K-12 MG1655, 50 g/L diacid (sodium salt)
quantity: μ (mean) (h^1)

>>> readout_number("O=C(O)/C=C/C(=O)O")
0.116
>>> readout_number("C=C(CC(=O)O)C(=O)O")
0.117
>>> readout_number("O=C(O)CC(O)C(=O)O (stereo not shown)")
0.287
>>> readout_number("O=C(O)CCC(=O)O")
0.179

###

- System: Escherichia coli K-12 MG1655
- assay.protocol: Screening for tolerance in wild-type cells: growth in varying concentrations of neutralized diacid, Biolector
- Type: cell-based
- assay.context: 10 g/L, neutralized with sodium hydroxide
- Procedure: Escherichia coli K-12 MG1655 was grown overnight in M9 minimal medium+1% glucose and subcultured the following morning to an initial OD600 of 0.05 in M9+1% glucose. […] The diluted cells were used to inoculate M9+1% glucose containing varying concentrations of glutaric acid or adipic acid which were neutralized to pH 7.0 with sodium hydroxide, and growth was measured in FlowerPlates in a Biolector microbioreactor system (m2p-labs) at 37° C. with 1000 rpm shaking. […]
quantity: tlag (lag time), mean (h)

>>> readout_number("O=C(O)CCCC(=O)O")
2.0
>>> readout_number("O=C(O)CCCCCCCCC(=O)O")
1.9
>>> readout_number("O=C(O)CCCCC(=O)O")
1.0
>>> readout_number("O=C(O)CCCCCC(=O)O")
1.9

###

- Tested on: Escherichia coli K-12 MG1655
- assay.protocol: Screening for tolerance in wild-type cells: growth in varying concentrations of neutralized diacid, Biolector
- Type: cell-based
- assay.context: 20 g/L, neutralized with sodium hydroxide
quantity: tlag (lag time), mean

>>> result("O=C(O)CCCCCC(=O)O")
"2.4 h"
>>> result("O=C(O)CCCC(=O)O")
"1.9 h"
>>> result("O=C(O)CCCCCCCCC(=O)O")
"2.7 h"
>>> result("O=C(O)CCCCC(=O)O")
"1.3 h"

###

- System: Escherichia coli K-12 MG1655
- assay.protocol: Growth of K-12 MG1655 in varying concentrations of fumaric, itaconic, malic and succinic acid, Growth Profiler
- Format: cell-based
- assay.context: lag time of K-12 MG1655, 50 g/L diacid (sodium salt)
quantity: tlag (mean) (h)

>>> readout_number("C=C(CC(=O)O)C(=O)O")
29.9
>>> readout_number("O=C(O)/C=C/C(=O)O")
30.2
>>> readout_number("O=C(O)CC(O)C(=O)O (stereo not shown)")
16.9
>>> readout_number("O=C(O)CCC(=O)O")
22.4

###

Parameter μ (mean): see the listing below.
- System: Escherichia coli K-12 MG1655
- assay.protocol: Growth of K-12 MG1655 in varying concentrations of fumaric, itaconic, malic and succinic acid, Growth Profiler
- Assay type: cell-based
- assay.context: growth rate of K-12 MG1655, 10 g/L diacid (sodium salt)
quantity: μ (mean) (h^1)

>>> readout_number("O=C(O)CC(O)C(=O)O (stereo not shown)")
0.686
>>> readout_number("O=C(O)/C=C/C(=O)O")
0.662
>>> readout_number("O=C(O)CCC(=O)O")
0.665
>>> readout_number("C=C(CC(=O)O)C(=O)O")
0.703

###

- Tested on: Escherichia coli K-12 MG1655
- assay.protocol: Screening for tolerance in wild-type cells: growth in varying concentrations of neutralized diacid, Biolector
- Format: cell-based
- assay.context: 40 g/L, neutralized with sodium hydroxide
Parameter μ (growth rate), mean: see the listing below.
quantity: μ (growth rate), mean (h⁻¹)

>>> readout_number("O=C(O)CCCCCC(=O)O")
0.439
>>> readout_number("O=C(O)CCCCC(=O)O")
0.263
>>> readout_number("O=C(O)CCCCCCCCC(=O)O")
0.222
>>> readout_number("O=C(O)CCCC(=O)O")
0.132

###

- Test system: Escherichia coli K-12 MG1655
- assay.protocol: Growth of K-12 MG1655 in varying concentrations of fumaric, itaconic, malic and succinic acid, Growth Profiler
- Type: cell-based
- assay.context: growth rate of K-12 MG1655, 30 g/L diacid (sodium salt)
quantity: μ (mean) (h^1)

>>> readout_number("C=C(CC(=O)O)C(=O)O [itaconic acid]")
0.520
>>> readout_number("O=C(O)/C=C/C(=O)O [fumaric acid]")
0.482
>>> readout_number("O=C(O)CC(O)C(=O)O (stereo not shown) [malic acid]")
0.526
>>> readout_number("O=C(O)CCC(=O)O [succinic acid]")
0.496

###

- System: Escherichia coli K-12 MG1655
- assay.protocol: Growth of K-12 MG1655 in varying concentrations of fumaric, itaconic, malic and succinic acid, Growth Profiler
- Type: cell-based
- assay.context: lag time of K-12 MG1655, 40 g/L diacid (sodium salt)
quantity: tlag (mean) (h)

>>> readout_number("O=C(O)/C=C/C(=O)O")
15.4
>>> readout_number("O=C(O)CC(O)C(=O)O (stereo not shown)")
11.1
>>> readout_number("O=C(O)CCC(=O)O")
13.4
>>> readout_number("C=C(CC(=O)O)C(=O)O")
14.1

###

- System: Escherichia coli K-12 MG1655
- assay.protocol: Growth of K-12 MG1655 in varying concentrations of fumaric, itaconic, malic and succinic acid, Growth Profiler
- Format: cell-based
- assay.context: lag time of K-12 MG1655, 10 g/L diacid (sodium salt)
Parameter tlag (mean): see the listing below.
quantity: tlag (mean) (h)

>>> readout_number("O=C(O)CCC(=O)O")
5.4
>>> readout_number("C=C(CC(=O)O)C(=O)O")
5.8
>>> readout_number("O=C(O)CC(O)C(=O)O (stereo not shown)")
5.9
>>> readout_number("O=C(O)/C=C/C(=O)O")
5.8

###

- System: Escherichia coli K-12 MG1655
- assay.protocol: Growth of K-12 MG1655 in varying concentrations of fumaric, itaconic, malic and succinic acid, Growth Profiler
- Assay type: cell-based
- assay.context: growth rate of K-12 MG1655, 20 g/L diacid (sodium salt)
Parameter μ (mean): see the listing below.
quantity: μ (mean) (h^1)

>>> readout_number("O=C(O)CCC(=O)O")
0.610
>>> readout_number("O=C(O)/C=C/C(=O)O")
0.615
>>> readout_number("C=C(CC(=O)O)C(=O)O")
0.603
>>> readout_number("O=C(O)CC(O)C(=O)O (stereo not shown)")
0.639
